Give inhibition at 50 µM for every item shown.
biological target: isolated porcine cardiac ventricular myocardium (cardiac) (Sus scrofa, UniProt P79293); construct: isolated porcine cardiac ventricular myocardium (cardiac); from tissue; host or cells: porcine cardiac ventricle; experiment: actomyosin steady state ATPase measurement, cardiac myosin; assay type: biochemical; settings: read-out: % inhibition at 50 μM (or 100 μM if racemate) cardiac; 50 μM (100 μM if racemate); ATPase activity
Sequence (P79293 whole entry): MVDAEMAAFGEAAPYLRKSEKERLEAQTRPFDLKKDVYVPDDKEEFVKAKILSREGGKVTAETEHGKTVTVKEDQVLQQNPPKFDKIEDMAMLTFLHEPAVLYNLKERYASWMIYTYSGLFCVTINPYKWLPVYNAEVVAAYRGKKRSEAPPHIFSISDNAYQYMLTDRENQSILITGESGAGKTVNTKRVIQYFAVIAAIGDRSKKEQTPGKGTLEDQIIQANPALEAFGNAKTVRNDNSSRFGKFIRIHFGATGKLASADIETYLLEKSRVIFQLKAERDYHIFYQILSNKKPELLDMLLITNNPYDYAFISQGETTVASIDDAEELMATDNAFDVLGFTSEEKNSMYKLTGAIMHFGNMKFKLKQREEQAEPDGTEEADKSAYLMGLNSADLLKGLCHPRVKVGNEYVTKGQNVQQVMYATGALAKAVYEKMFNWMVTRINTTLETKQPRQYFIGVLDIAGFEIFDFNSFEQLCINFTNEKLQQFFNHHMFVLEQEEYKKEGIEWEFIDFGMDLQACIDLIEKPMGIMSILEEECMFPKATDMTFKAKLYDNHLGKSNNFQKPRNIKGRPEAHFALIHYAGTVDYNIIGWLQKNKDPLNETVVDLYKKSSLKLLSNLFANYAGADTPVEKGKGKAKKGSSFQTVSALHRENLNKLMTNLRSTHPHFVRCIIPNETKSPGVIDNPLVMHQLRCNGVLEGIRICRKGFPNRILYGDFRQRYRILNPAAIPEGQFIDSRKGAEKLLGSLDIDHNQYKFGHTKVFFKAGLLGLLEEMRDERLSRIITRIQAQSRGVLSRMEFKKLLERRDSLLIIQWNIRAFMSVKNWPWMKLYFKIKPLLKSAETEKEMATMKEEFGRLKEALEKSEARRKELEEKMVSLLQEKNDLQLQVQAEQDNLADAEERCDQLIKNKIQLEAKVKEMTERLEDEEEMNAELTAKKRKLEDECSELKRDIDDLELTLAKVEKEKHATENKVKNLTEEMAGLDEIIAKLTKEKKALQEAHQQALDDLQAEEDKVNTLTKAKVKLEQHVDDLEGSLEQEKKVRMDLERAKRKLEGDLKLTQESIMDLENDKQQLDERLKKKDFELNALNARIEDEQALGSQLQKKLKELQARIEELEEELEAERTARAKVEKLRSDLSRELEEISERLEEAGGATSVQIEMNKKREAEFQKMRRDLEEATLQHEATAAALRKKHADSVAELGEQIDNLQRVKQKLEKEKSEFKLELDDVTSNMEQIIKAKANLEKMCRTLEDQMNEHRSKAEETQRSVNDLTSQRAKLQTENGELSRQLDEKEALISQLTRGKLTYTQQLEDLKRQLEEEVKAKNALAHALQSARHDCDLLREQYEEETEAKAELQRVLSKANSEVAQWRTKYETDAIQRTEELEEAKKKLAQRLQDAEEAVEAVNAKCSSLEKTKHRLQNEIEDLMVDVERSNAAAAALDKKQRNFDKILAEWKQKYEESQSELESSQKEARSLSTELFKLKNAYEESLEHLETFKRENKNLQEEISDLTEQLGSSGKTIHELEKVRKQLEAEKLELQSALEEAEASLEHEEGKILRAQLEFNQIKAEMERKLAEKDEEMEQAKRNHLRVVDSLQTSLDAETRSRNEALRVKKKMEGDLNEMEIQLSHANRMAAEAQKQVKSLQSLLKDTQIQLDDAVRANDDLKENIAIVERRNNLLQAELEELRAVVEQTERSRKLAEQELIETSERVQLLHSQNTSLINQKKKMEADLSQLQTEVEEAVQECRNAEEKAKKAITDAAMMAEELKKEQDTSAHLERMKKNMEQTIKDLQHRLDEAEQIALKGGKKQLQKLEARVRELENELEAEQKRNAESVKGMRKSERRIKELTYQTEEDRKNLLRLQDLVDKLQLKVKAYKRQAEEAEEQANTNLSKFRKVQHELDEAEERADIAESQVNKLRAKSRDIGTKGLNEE
Give bare numbers, in %.

Recorded inhibition at 50 µM, per entry:
| MOLECULE | MEASURED_ON | UNIT_ABBREVIATION | inhibition at 50 µM |
| --- | --- | --- | --- |
| CN(C)c1ccc(N2CC[C@@]3(O)C(=O)c4ccsc4N=C23)cc1 | isolated porcine cardiac ventricular myocardium (cardiac) (Sus scrofa, UniProt P79293) | % | 52 |
| CN(C)c1ccc(N2CCC3(O)C(=O)c4ccncc4N=C23)cc1 (stereo not drawn) | isolated porcine cardiac ventricular myocardium (cardiac) (Sus scrofa, UniProt P79293) | % | 13 |

Item `COc1ccc(N2CC[C@@]3(O)C(=O)c4ccsc4N=C23)cn1` has what recorded inhibition at 50 µM? 78

---

molecular target: isolated smooth muscle myosin (UniProt P10587); assay type: biochemical, chamois; conditions: maximum value of inhibition of ATPase activity
Sequence (P10587 whole entry): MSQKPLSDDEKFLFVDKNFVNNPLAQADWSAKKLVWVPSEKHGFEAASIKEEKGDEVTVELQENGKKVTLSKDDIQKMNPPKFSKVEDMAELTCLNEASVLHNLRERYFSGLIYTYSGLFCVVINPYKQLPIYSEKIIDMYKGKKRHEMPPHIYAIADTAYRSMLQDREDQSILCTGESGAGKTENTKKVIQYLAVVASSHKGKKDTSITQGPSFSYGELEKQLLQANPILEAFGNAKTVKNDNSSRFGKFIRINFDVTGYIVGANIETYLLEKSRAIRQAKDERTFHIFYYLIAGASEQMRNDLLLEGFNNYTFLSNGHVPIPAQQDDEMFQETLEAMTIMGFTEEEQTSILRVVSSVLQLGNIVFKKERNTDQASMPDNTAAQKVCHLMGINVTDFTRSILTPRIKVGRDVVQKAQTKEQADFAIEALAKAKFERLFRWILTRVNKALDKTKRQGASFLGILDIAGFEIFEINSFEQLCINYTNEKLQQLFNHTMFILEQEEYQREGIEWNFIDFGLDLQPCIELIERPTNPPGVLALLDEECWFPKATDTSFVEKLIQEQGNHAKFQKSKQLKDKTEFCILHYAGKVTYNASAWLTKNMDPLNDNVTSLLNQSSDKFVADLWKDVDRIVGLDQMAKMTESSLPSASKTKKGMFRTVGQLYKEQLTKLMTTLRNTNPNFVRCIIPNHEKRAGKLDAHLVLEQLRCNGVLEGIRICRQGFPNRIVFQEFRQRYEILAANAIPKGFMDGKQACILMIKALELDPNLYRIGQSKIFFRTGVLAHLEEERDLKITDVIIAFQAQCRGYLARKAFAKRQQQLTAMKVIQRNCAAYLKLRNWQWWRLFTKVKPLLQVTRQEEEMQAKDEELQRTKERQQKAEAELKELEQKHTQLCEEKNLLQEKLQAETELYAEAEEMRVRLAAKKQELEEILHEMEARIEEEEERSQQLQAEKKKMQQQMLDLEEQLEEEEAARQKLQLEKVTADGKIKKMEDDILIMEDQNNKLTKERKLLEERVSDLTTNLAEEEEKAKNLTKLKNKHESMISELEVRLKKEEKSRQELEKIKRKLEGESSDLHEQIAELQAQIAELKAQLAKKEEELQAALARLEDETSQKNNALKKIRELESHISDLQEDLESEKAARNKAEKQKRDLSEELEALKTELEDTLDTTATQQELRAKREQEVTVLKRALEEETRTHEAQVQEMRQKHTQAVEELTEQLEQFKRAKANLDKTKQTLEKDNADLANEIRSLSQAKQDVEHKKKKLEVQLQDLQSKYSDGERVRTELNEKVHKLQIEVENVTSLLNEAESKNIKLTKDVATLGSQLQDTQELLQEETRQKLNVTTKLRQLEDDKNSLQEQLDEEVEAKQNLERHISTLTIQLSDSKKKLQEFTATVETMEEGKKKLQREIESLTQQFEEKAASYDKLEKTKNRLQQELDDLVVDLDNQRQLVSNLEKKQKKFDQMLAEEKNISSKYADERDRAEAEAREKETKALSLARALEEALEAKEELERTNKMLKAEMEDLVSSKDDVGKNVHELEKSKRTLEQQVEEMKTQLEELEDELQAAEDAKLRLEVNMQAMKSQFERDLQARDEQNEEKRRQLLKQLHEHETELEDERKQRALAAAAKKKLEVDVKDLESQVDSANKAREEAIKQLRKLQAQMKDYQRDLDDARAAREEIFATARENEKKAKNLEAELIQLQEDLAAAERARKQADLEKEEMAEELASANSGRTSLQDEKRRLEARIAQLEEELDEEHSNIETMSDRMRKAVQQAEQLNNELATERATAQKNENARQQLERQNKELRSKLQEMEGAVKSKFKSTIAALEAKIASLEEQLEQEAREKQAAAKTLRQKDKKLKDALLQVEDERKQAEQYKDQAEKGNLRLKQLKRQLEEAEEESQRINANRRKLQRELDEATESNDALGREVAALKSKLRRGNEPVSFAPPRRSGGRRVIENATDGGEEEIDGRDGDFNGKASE
OUTCOME_MEASURE: % inhibition. complete Smooth (%)
Give bare numbers, in %.

Give % inhibition. complete Smooth for all compounds that follow.
1. Cc1ccc(N2CCC3(O)C(=O)c4ccncc4N=C23)cc1 (stereo not shown)
2. CC(=O)c1ccc(N2CCC3(O)C(=O)c4ccncc4N=C23)cc1 (stereo not shown)
3. Cc1cc2c(s1)N=C1N(c3ccc(N4CCOCC4)cc3)CCC1(O)C2=O (stereo not shown)

1. 29
2. 24
3. 51

Missing value: % inhibition. complete Smooth, isolated smooth muscle myosin (UniProt P10587), entry Cc1cc2c(s1)N=C1N(c3ccc(C#N)cc3)CCC1(O)C2=O (stereo not shown) . Fill in? 99
